Test system: human SMAD7 mRNA
Assay: Dose-dependent inhibition of human SMAD7 mRNA expression in Hep3B cells (Example 3, Study 1 and 2)
Assay type: cell-based
Conditions: electroporation, Study 1 (312.5-20000 nM)
pIC50: −log10 of the molar value. Strand notation (5' to 3'): a small letter for the sugar, then the base; units joined by * are phosphorothioate-linked, units joined directly phosphodiester-linked; [ ] holds rarer units or linkages, { } end groups; capitals alone tell only the bases. e = 2'-O-(2-methoxyethyl) (MOE); [5mC] = 5-methylcytosine; d = 2'-deoxy (DNA)
property: pIC50

Form: Entry = 771937 (antisense eT*e[5mC]*e[5mC]*eA*eG*dT*dG*d[5mC]*dT*dT*dG*dT*dG*d[5mC]*dA*eT*eG*eT*eG*e[5mC]) [compound 771937] | System = human SMAD7 mRNA | pIC50 = ____
< 4.70

Moving on to the next substance: 771661 (antisense eA*eA*eT*eG*e[5mC]*dT*dT*d[5mC]*dT*d[5mC]*dT*dT*dG*dT*dT*e[5mC]*eA*eT*eT*eT) [compound 771661]
< 4.70

Moving on to the next substance: 771704 (antisense e[5mC]*eA*eG*eG*eA*dG*dG*dG*dT*dA*dT*dG*d[5mC]*dA*d[5mC]*eA*e[5mC]*eT*e[5mC]*eT) [compound 771704]
< 4.70

Moving on to the next substance: 771414 (eT*e[5mC]*eG*eG*e[5mC]*dT*dG*dT*d[5mC]*d[5mC]*dG*dT*d[5mC]*dG*d[5mC]*e[5mC]*e[5mC]*e[5mC]*eT*eT; antisense) [compound 771414]
< 4.70

Moving on to the next substance: 771815 (antisense e[5mC]*eT*e[5mC]*e[5mC]*e[5mC]*dT*dT*dT*dT*d[5mC]*dA*d[5mC]*dT*dG*d[5mC]*eT*e[5mC]*e[5mC]*eA*e[5mC]) [compound 771815]
< 4.70

Moving on to the next substance: 771891 (antisense e[5mC]*eT*e[5mC]*e[5mC]*e[5mC]*dA*dA*dG*d[5mC]*d[5mC]*dT*dA*d[5mC]*dA*dT*eA*eT*eT*eT*e[5mC]) [compound 771891]
< 4.70

Moving on to the next substance: 771399 (antisense eG*e[5mC]*e[5mC]*e[5mC]*eG*dG*dG*d[5mC]*dA*dG*dG*dA*dG*d[5mC]*dG*eG*e[5mC]*eG*eG*e[5mC]) [compound 771399]
< 4.70

Moving on to the next substance: 771439 (eG*eG*e[5mC]*eT*eG*d[5mC]*dG*d[5mC]*dG*d[5mC]*d[5mC]*dG*dG*d[5mC]*dG*eG*eG*e[5mC]*eG*e[5mC]; antisense) [compound 771439]
5.05

Moving on to the next substance: 771506 (antisense eG*e[5mC]*eT*e[5mC]*eA*dG*d[5mC]*dT*d[5mC]*dA*d[5mC]*dG*d[5mC]*dT*d[5mC]*eT*eG*eT*e[5mC]*e[5mC]) [compound 771506]
< 4.70

Moving on to the next substance: 771403 (antisense eG*eA*eA*e[5mC]*eA*dT*dG*dA*d[5mC]*d[5mC]*dT*d[5mC]*d[5mC]*dG*d[5mC]*eA*e[5mC]*eA*e[5mC]*e[5mC]) [compound 771403]
< 4.70

Moving on to the next substance: 771345 (antisense eA*e[5mC]*eA*eG*e[5mC]*dA*dT*d[5mC]*dT*dG*dG*dA*d[5mC]*dA*dG*eT*e[5mC]*eA*eG*eT) [compound 771345]
5.22

Moving on to the next substance: 771776 (antisense e[5mC]*eT*e[5mC]*eA*eG*d[5mC]*dA*dA*dG*d[5mC]*dT*d[5mC]*dA*dG*dT*eT*e[5mC]*e[5mC]*eT*eG) [compound 771776]
5.05

Moving on to the next substance: 771869 (antisense eA*eG*e[5mC]*e[5mC]*eA*dA*dG*dT*dG*dT*d[5mC]*d[5mC]*dA*dT*d[5mC]*eA*eA*eG*e[5mC]*eA) [compound 771869]
< 4.70

Moving on to the next substance: 771641 (antisense eA*eG*eT*eT*eA*dG*dG*dT*dG*dT*d[5mC]*dA*dG*d[5mC]*d[5mC]*eT*eA*eG*eG*eA) [compound 771641]
< 4.70

Moving on to the next substance: 771885 (antisense e[5mC]*eA*eA*eG*eT*d[5mC]*dT*d[5mC]*dT*dT*dA*d[5mC]*d[5mC]*dT*d[5mC]*eA*e[5mC]*e[5mC]*e[5mC]*eA) [compound 771885]
< 4.70

Moving on to the next substance: 771797 (antisense eG*e[5mC]*eA*e[5mC]*eA*dG*dA*d[5mC]*dT*dG*d[5mC]*d[5mC]*dA*dA*dA*eT*e[5mC]*eA*e[5mC]*eA) [compound 771797]
< 4.70

====

Experiment: Hematology assays after subcutaneous administration in CD-1 mice (Example 6)
Type: in vivo
Conditions: 50 mg/kg subcutaneous twice weekly for 7 weeks
Strand notation (5' to 3'): a small letter for the sugar, then the base; units joined by * are phosphorothioate-linked, units joined directly phosphodiester-linked; [ ] holds rarer units or linkages, { } end groups; capitals alone tell only the bases. k = constrained ethyl (cEt); [5mC] = 5-methylcytosine; d = 2'-deoxy (DNA)
Provide the recorded platelets for the entries that follow.

Could you tell me which platelets is on file for 830121 (AGAATCAAGCCCTGGC; 3-10-3 cEt gapmer, further chemistry not given here) [compound 830121] ?
765.0 10^3/μL

Moving on to the next substance: 829994 (GGAGGCAGGGCCGCGA; 3-10-3 cEt gapmer, further chemistry not given here) [compound 829994]
841.3 10^3/μL

Moving on to the next substance: 830025 (antisense TTTGTAAATCGAAAGC; 3-10-3 cEt gapmer, further chemistry not given here) [compound 830025]
805.0 10^3/μL

Moving on to the next substance: 799144 (antisense kT*kT*kG*dG*dG*dT*dT*dA*dT*dG*dA*d[5mC]*dG*kG*kA*k[5mC]) [compound 799144]
614.0 10^3/μL

Moving on to the next substance: 790615 (CCAATGAGAATGCTTC; 3-10-3 cEt gapmer, further chemistry not given here) [compound 790615]
1055.8 10^3/μL

Moving on to the next substance: 798781 (CGTAAGATTCACAGCA; 3-10-3 cEt gapmer, further chemistry not given here) [compound 798781]
867.3 10^3/μL

Moving on to the next substance: 830027 (antisense kA*kA*k[5mC]*d[5mC]*dA*dT*dT*dT*dA*dT*d[5mC]*dT*dG*kG*kT*kG) [compound 830027]
1141.8 10^3/μL

====

Assay: Hematology assays after subcutaneous administration in beagle dogs (Example 8)
Assay type: in vivo
Conditions: 30 mg/kg subcutaneous days 1, 3, 5, 8, 15, 22, 29
property: Basophils (%)
Only the number, expressed in %, is required.

Could you tell me which Basophils is on file for 790615 (CCAATGAGAATGCTTC; 3-10-3 cEt gapmer, further chemistry not given here) [compound 790615] ?
0.5

Moving on to the next substance: 829994 (GGAGGCAGGGCCGCGA; 3-10-3 cEt gapmer, further chemistry not given here) [compound 829994]
0.5

Moving on to the next substance: 798781 (CGTAAGATTCACAGCA; 3-10-3 cEt gapmer, further chemistry not given here) [compound 798781]
0.5

Moving on to the next substance: 830037 (antisense CTATTGGCTGATCTGG; 3-10-3 cEt gapmer, further chemistry not given here) [compound 830037]
0.7

Moving on to the next substance: 830025 (antisense TTTGTAAATCGAAAGC; 3-10-3 cEt gapmer, further chemistry not given here) [compound 830025]
0.3

Moving on to the next substance: 830121 (AGAATCAAGCCCTGGC; 3-10-3 cEt gapmer, further chemistry not given here) [compound 830121]
0.8

====

Test system: human SMAD7 mRNA
Assay: Antisense inhibition of human SMAD7 mRNA expression in Hep3B cells by 3-10-3 cEt gapmers, 10,000 nM, electroporation (Example 2)
Format: cell-based
Conditions: SMAD7 mRNA, Hep3B cells, 10,000 nM antisense oligonucleotide, electroporation, approximately 24 hours, primer probe set RTS5062, relative to untreated control cells
Strand notation (5' to 3'): a small letter for the sugar, then the base; units joined by * are phosphorothioate-linked, units joined directly phosphodiester-linked; [ ] holds rarer units or linkages, { } end groups; capitals alone tell only the bases. k = constrained ethyl (cEt); [5mC] = 5-methylcytosine; d = 2'-deoxy (DNA)
property: % Inhibition (%)
Only the number, expressed in %, is required.

Could you tell me which % Inhibition is on file for 829717 (antisense kA*kG*kT*d[5mC]*dT*d[5mC]*d[5mC]*d[5mC]*dG*dG*dA*dG*dG*k[5mC]*k[5mC]*kG) [compound 829717] ?
28

Moving on to the next substance: 772929 (k[5mC]*kG*kG*dA*dA*dG*dT*d[5mC]*dT*dT*dG*dT*dA*kT*kT*kT; antisense) [compound 772929]
37

Moving on to the next substance: 829741 (antisense k[5mC]*k[5mC]*kG*dG*dA*d[5mC]*dG*dA*dG*d[5mC]*dG*d[5mC]*dA*kG*kA*kT) [compound 829741]
32

Moving on to the next substance: 790874 (k[5mC]*k[5mC]*kG*dG*dA*dA*dG*dT*d[5mC]*dT*dT*dG*dT*kA*kT*kT; antisense) [compound 790874]
0

Moving on to the next substance: 829773 (antisense kG*kT*kA*dG*dG*dA*d[5mC]*dG*dA*dG*dG*dG*d[5mC]*kG*kG*k[5mC]) [compound 829773]
50

Moving on to the next substance: 790652 (k[5mC]*kA*k[5mC]*d[5mC]*dA*dG*dT*dT*dG*dG*dT*dT*dT*kG*kA*kG; antisense) [compound 790652]
25

Moving on to the next substance: 772591 (kA*kG*kT*dG*dT*dG*dA*d[5mC]*d[5mC]*dG*dA*dT*d[5mC]*k[5mC]*k[5mC]*k[5mC]; antisense) [compound 772591]
60

Moving on to the next substance: 772592 (k[5mC]*kA*k[5mC]*d[5mC]*dA*dG*dT*dG*dT*dG*dA*d[5mC]*d[5mC]*kG*kA*kT; antisense) [compound 772592]
24

Moving on to the next substance: 829754 (antisense kT*k[5mC]*kT*d[5mC]*d[5mC]*d[5mC]*d[5mC]*dG*d[5mC]*dA*dG*d[5mC]*dT*k[5mC]*kG*k[5mC]) [compound 829754]
49

Moving on to the next substance: 801145 (antisense kA*k[5mC]*kG*d[5mC]*dT*dG*dT*dG*dG*dT*dT*dT*dG*kT*kG*kG) [compound 801145]
0

Moving on to the next substance: 772578 (kG*kG*kT*dA*dT*d[5mC]*dT*dG*dG*dA*dG*dT*dA*kA*kG*kG; antisense) [compound 772578]
63

Moving on to the next substance: 829733 (antisense kA*k[5mC]*k[5mC]*dA*dT*dG*dA*dA*dG*dA*dA*dG*dT*k[5mC]*kG*kG) [compound 829733]
54

Sourced from patent US10517889B2
